These entries and their values trace back to patent US9169254B2.

EXPERIMENTAL SYSTEM: human PTH1 receptor (Homo sapiens)
Sequence (Q03431 27-593): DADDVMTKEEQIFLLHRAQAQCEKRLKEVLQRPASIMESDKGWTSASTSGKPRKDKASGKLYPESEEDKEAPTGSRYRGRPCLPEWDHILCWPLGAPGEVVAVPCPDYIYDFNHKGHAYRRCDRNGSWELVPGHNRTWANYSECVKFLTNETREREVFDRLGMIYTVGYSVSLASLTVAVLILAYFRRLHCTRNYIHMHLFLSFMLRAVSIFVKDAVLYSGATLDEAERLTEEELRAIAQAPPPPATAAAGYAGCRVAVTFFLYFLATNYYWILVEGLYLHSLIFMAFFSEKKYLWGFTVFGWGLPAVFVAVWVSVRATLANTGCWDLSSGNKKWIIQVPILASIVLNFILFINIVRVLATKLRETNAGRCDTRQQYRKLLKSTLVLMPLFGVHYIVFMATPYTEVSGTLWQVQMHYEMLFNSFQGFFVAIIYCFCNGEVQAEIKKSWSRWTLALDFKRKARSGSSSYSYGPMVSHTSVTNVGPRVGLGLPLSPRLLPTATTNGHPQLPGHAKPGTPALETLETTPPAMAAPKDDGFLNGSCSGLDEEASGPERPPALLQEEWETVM
EXPERIMENTAL DETAILS: In vitro cAMP signal activity in HKRK-B7 cells (LLC-PK1 cells overexpressing the human PTH1 receptor)
Type: cell-based
MEASUREMENT SETUP: HKRK-B7 cells; compound at 1×10^−3 M; cAMP produced as percentage of that produced by hPTH(1-34) at 100 nM
Counter-ions that a name gives are not always drawn.
Classification by cAMP production activity (%) follows these ranges: interval 1: < 40%; interval 2: ≥ 40% and < 70%; interval 3: ≥ 70%

Example entries and their recorded answers appear below.
COMPOUND | CLASS ASSIGNMENT
Cc1cc(N2C(=O)OCC2C)ccc1/C=C/S(=O)(=O)N1CCC2(CC1)N=C(C1CCC(C)CC1)NC2=O (stereo not shown) | interval 2
CC(=O)Nc1cccc(C)c1/C=C/S(=O)(=O)N1CCC2(CC1)N=C(C1CCCCC1)NC2=O | interval 2
Cc1cc(CN(CCO)C(=O)OC(C)(C)C)ccc1/C=C/S(=O)(=O)N1CCC2(CC1)N=C(C1CCCCC1)NC2=O | interval 1
Cc1ccc(O)cc1/C=C/S(=O)(=O)N1CCC2(CC1)N=C(c1cccc(OC(F)(F)F)c1)NC2=O | interval 3
Cc1cc(OC2CCNCC2)ccc1CCS(=O)(=O)N1CCC2(CC1)N=C(c1cccc(OC(F)(F)F)c1)NC2=O [Compound 889, hydrochloride] | interval 1

Assign a category based on measured cAMP production activity (%) for O=C(Cc1ccccn1)N1CCCC(C2=NC3(CCN(S(=O)(=O)CCc4cccc5ccccc45)CC3)C(=O)N2)C1 (stereo not shown) and give only the class name.
interval 1

Assign a category based on measured cAMP production activity (%) for "Cc1cc(N(C)C(N)=O)cc(C)c1CCS(=O)(=O)N1CCC2(CC1)N=C(CCCCCCCS(C)(=O)=O)NC2=O" and give only the class name.
interval 1

Assign a category based on measured cAMP production activity (%) for "CC(=O)Nc1ccc(CCS(=O)(=O)N2CCC3(CC2)N=C(Nc2ccc(C(F)(F)F)cc2)NC3=O)c(C)c1" and give only the class name.
interval 3

Assign a category based on measured cAMP production activity (%) for "CCCCCCCCCC1=NC2(CCN(S(=O)(=O)/C=C/c3ccc(N4C(=O)CNC4=O)cc3C(F)(F)F)CC2)C(=O)N1" and give only the class name.
interval 1

Assign a category based on measured cAMP production activity (%) for "Cc1cc(C(=O)N2CCN(c3ncccn3)CC2)ccc1CCS(=O)(=O)N1CCC2(CC1)N=C(c1cccc(C(F)(F)F)c1)NC2=O" and give only the class name.
interval 2

Assign a category based on measured cAMP production activity (%) for "CCCCCC#CCCC1=NC2(CCN([S@TB17](=O)(=O)CCc3c(C)cc(N(C)C(N)=O)cc3C)CC2)C(=O)N1" and give only the class name.
interval 1

Assign a category based on measured cAMP production activity (%) for Cc1cc(C(=O)N2CCC(O)(CF)CC2)cc(C)c1/C=C/S(=O)(=O)N1CCC2(CC1)N=C(C1CCC(CCC(F)(F)F)CC1)NC2=O (stereo not shown) and give only the class name.
interval 3

Assign a category based on measured cAMP production activity (%) for "Cc1cc(C(=O)N(C)C)ccc1CCS(=O)(=O)N1CCC2(CC1)N=C(c1ccc(OC(F)(F)F)cc1)NC2=O" and give only the class name.
interval 3

Assign a category based on measured cAMP production activity (%) for "Cc1cc(C(=O)N2CCC(O)(CF)CC2)cc(C)c1/C=C/S(=O)(=O)N1CCC2(CC1)N=C(c1cccc(C(F)(F)C(F)(F)F)c1)NC2=O" and give only the class name.
interval 3

Assign a category based on measured cAMP production activity (%) for "COC(=O)Cn1ccc2c(/C=C/S(=O)(=O)N3CCC4(CC3)N=C(C3CCCCC3)NC4=O)cccc21" and give only the class name.
interval 2
